Each entry below carries its reported [θ]222 mean residue molar ellipticity, Liposomes.
# Method: CD spectroscopy, helicity
# Assay type: physicochemical
# Run Conditions: CD at 222 nm, 25 °C, bacterial membrane mimicking liposomes, peptide:lipid molar ratio 1:1.05
Where no end group is shown, it is not given here.
Property Measured: [θ]222 mean residue molar ellipticity, Liposomes

[
  {
    "Substance": "Ac-RWLRRWLRWWRR-NH2 [8c]",
    "Value Measured": "-19930 mdeg cm2/(dmol × res)"
  },
  {
    "Substance": "Ac-RWARRWARWWRR-NH2 [6c]",
    "Value Measured": "-20250 mdeg cm2/(dmol × res)"
  },
  {
    "Substance": "RAWRAWWRRA-NH2 [4f]",
    "Value Measured": "-4470 mdeg cm2/(dmol × res)"
  },
  {
    "Substance": "RWLRRWLRWWR-NH2 [5d]",
    "Value Measured": "-5800 mdeg cm2/(dmol × res)"
  },
  {
    "Substance": "WRRWWRR-NH2 [1c]",
    "Value Measured": "-3092 mdeg cm2/(dmol × res)"
  },
  {
    "Substance": "KWLKKWLKWWKK-NH2 [8b]",
    "Value Measured": "-19313 mdeg cm2/(dmol × res)"
  },
  {
    "Substance": "RWWRRAWAR-NH2 [3e]",
    "Value Measured": "-4987 mdeg cm2/(dmol × res)"
  },
  {
    "Substance": "KWAKKWAKWWKK-NH2 [6b]",
    "Value Measured": "-20391 mdeg cm2/(dmol × res)"
  },
  {
    "Substance": "Ac-RWIRRWIRWWRR-NH2 [7c]",
    "Value Measured": "-19297 mdeg cm2/(dmol × res)"
  },
  {
    "Substance": "KWLKKWWKWWKK-NH2 [8e]",
    "Value Measured": "-15042 mdeg cm2/(dmol × res)"
  },
  {
    "Substance": "KWAKKWWKWWKK-NH2 [6e]",
    "Value Measured": "-13181 mdeg cm2/(dmol × res)"
  },
  {
    "Substance": "Ac-KWLKKWLKWWKK-NH2 [8d]",
    "Value Measured": "-24786 mdeg cm2/(dmol × res)"
  },
  {
    "Substance": "RWARRWARWWRR-NH2 [6a]",
    "Value Measured": "-13245 mdeg cm2/(dmol × res)"
  },
  {
    "Substance": "Ac-KWIKKWIKWWKK-NH2 [7d]",
    "Value Measured": "-19755 mdeg cm2/(dmol × res)"
  },
  {
    "Substance": "RWLRRWLRWWRR-NH2 [8a]",
    "Value Measured": "-15616 mdeg cm2/(dmol × res)"
  },
  {
    "Substance": "Ac-KWAKKWAKWWKK-NH2 [6d]",
    "Value Measured": "-24274 mdeg cm2/(dmol × res)"
  },
  {
    "Substance": "RWWRRWAR-NH2 [2a]",
    "Value Measured": "-4556 mdeg cm2/(dmol × res)"
  },
  {
    "Substance": "KWIKKWIKWWKK-NH2 [7b]",
    "Value Measured": "-12345 mdeg cm2/(dmol × res)"
  },
  {
    "Substance": "RWIRRWIRWWRR-NH2 [7a]",
    "Value Measured": "-11307 mdeg cm2/(dmol × res)"
  }
]
